Hey, just so you know, these numbers are from patent EP4233917A1.

- Test system: JEG-3 cells
- assay-conditions: 10 µM on apical side, 24 h incubation; percentage of compound in the basolateral side
Peptide text beside a SMILES is read from it. * marks the point of attachment. X1 = C=CC1=C(C)c2cc3[nH]c(cc4nc(cc5[nH]c(cc1n2)c(C)c5CCC(=O)*)C(CCC(=O)O)=C4C)c(C)c3C=C; X3 = C=CC1=C(C)c2cc3[nH]c(cc4nc(cc5[nH]c(cc1n2)c(C)c5CCC(=O)O)C(CCC(=O)*)=C4C)c(C)c3C=C; X2 = CCC1=C(C)c2cc3[nH]c(cc4nc(cc5[nH]c(cc1n2)c(C)c5CCC(=O)O)C(CCC(=O)*)=C4C)c(C)c3CC; X4 = CCC1=C(C)c2cc3[nH]c(cc4nc(cc5[nH]c(cc1n2)c(C)c5CCC(=O)*)C(CCC(=O)O)=C4C)c(C)c3CC
measurement-label: BPB translocation (%)
Only the number, expressed in %, is required.

# input # lookup: BPB translocation (%) of CCC1=C(C)c2cc3[nH]c(cc4nc(cc5[nH]c(cc1n2)c(C)c5CCC(=O)O)C(CCC(=O)NCCCC[C@H](NC(=O)[C@H](CC(C)C)NC(=O)[C@H](CO)NC(=O)[C@H](Cc1ccccc1)NC(=O)[C@H](CCCNC(=N)N)NC(=O)[C@H](CCCCN)NC(=O)[C@@H](NC(=O)[C@H](CC(C)C)NC(=O)[C@H](CCC(N)=O)NC(=O)[C@H](CCC(N)=O)NC(=O)[C@@H](N)C(C)C)[C@@H](C)O)C(N)=O)=C4C)c(C)c3CC [Compound P2-MP] (H-VQQLTKRFSLK(X2)-NH2)
# output 6.9

# input # lookup: BPB translocation (%) of C=CC1=C(C)c2cc3[nH]c(cc4nc(cc5[nH]c(cc1n2)c(C)c5CCC(=O)O)C(CCC(=O)NCCCC[C@H](NC(=O)[C@H](Cc1ccc(O)cc1)NC(=O)[C@H](CCC(=O)O)NC(=O)[C@H](CCC(=O)O)NC(=O)[C@H](CCC(N)=O)NC(=O)[C@@H](NC(=O)CNC(=O)[C@@H](N)CO)[C@@H](C)O)C(N)=O)=C4C)c(C)c3C=C [Compound P4-PP] (H-SGTQEEYK(X3)-NH2)
# output 15.6

# input # lookup: BPB translocation (%) of CCC1=C(C)c2cc3[nH]c(cc4nc(cc5[nH]c(cc1n2)c(C)c5CCC(=O)N[C@H](C(=O)N[C@@H](CCC(N)=O)C(=O)N[C@@H](CCC(N)=O)C(=O)N[C@@H](CC(C)C)C(=O)N[C@H](C(=O)N[C@@H](CCCCN)C(=O)N[C@@H](CCCNC(=N)N)C(=O)N[C@@H](Cc1ccccc1)C(=O)N[C@@H](CO)C(=O)N[C@@H](CC(C)C)C(N)=O)[C@@H](C)O)C(C)C)C(CCC(=O)O)=C4C)c(C)c3CC [MP-P1] (X4-VQQLTKRFSL-NH2)
# output 6.9

# input # lookup: BPB translocation (%) of C=CC1=C(C)c2cc3[nH]c(cc4nc(cc5[nH]c(cc1n2)c(C)c5CCC(=O)N[C@H](C(=O)N[C@@H](CCC(N)=O)C(=O)N[C@@H](CCC(N)=O)C(=O)N[C@@H](CC(C)C)C(=O)N[C@H](C(=O)N[C@@H](CCCCN)C(=O)N[C@@H](CCCNC(=N)N)C(=O)N[C@@H](Cc1ccccc1)C(=O)N[C@@H](CO)C(=O)N[C@@H](CC(C)C)C(N)=O)[C@@H](C)O)C(C)C)C(CCC(=O)O)=C4C)c(C)c3C=C [(I)] (X1-VQQLTKRFSL-NH2)
# output 21.2

# input # lookup: BPB translocation (%) of C=CC1=C(C)c2cc3[nH]c(cc4nc(cc5[nH]c(cc1n2)c(C)c5CCC(=O)NCCCC[C@H](NC(=O)[C@H](CC(C)C)NC(=O)[C@H](CO)NC(=O)[C@H](Cc1ccccc1)NC(=O)[C@H](CCCNC(=N)N)NC(=O)[C@H](CCCCN)NC(=O)[C@@H](NC(=O)[C@H](CC(C)C)NC(=O)[C@H](CCC(N)=O)NC(=O)[C@H](CCC(N)=O)NC(=O)[C@@H](N)C(C)C)[C@@H](C)O)C(N)=O)C(CCC(=O)O)=C4C)c(C)c3C=C [Compound P2-PP] (H-VQQLTKRFSLK(X1)-NH2)
# output 7.9
